System: P19
Assay Info: Percent aggregation of mouse embryonal carcinoma (P19) cells 10e-6 M concentration in culture medium
Assay type: functional
Assay Metric: Aggregates (%)
Your answer should be a plain number; it is taken to be in %.

Mol Smiles	Obs Value
COC(=O)c1cc(NC(=O)c2cnc3c(n2)C(C)(C)CCC3(C)C)cc(C(=O)OC)c1	0

Task item: Given COc1cc(C(=O)O)ccc1NC(=O)/C=C(C)/C=C/C1=C(C)CCCC1(C)C , state its recorded Aggregates.
Reply: 2

----------
Test system: P19
Assay Info: Percent aggregation of mouse embryonal carcinoma (P19) cells 10e-6 M concentration in culture medium
Type: functional
Catalogue of Aggregates readings, one per entry.
Your answer should be a plain number; it is taken to be in %.

Take a look at these entries with their results.
Mol Smiles	Unit Symbol	Aggregates
CC1(C)CC(C)(C)c2nc(C(=O)Nc3cc(C(=O)O)cc(C(=O)O)c3)cnc21	%	2
CC1=C(/C=C/C(C)=C/C(=O)N(C)c2ccc(C(=O)O)cc2)C(C)(C)CCC1	%	1
COC(=O)c1ccc(NC(=O)c2cnc3c(n2)C(C)(C)CCC3(C)C)cc1	%	75
COc1cc(C(=O)O)ccc1NC(=O)c1cnc2c(n1)C(C)(C)CCC2(C)C	%	0
COC(=O)c1cc(NC(=O)c2cnc3c(n2)C(C)(C)CC3(C)C)cc(C(=O)OC)c1	%	1

Task item: Given COC(=O)c1ccc(NC(=O)c2cnc3c(n2)C(C)(C)CC3(C)C)c(OC)c1 , state its recorded Aggregates.
Reply: 0

Task item: What about CC1=C(/C=C/C(C)=C/C(=O)Nc2ccc(C(=O)O)cc2)C(C)(C)CCC1 ?
Reply: 68

Task item: What about CC1(C)CCC(C)(C)c2nc(C(=O)Nc3cccc(C(=O)O)c3)cnc21 ?
Reply: 1
